# tgt: T1, human CC chemokine receptor 1 (human CCR1) (human, UniProt P32246 1-355)
# T1 construct: endogenous on THP-1 cells in the migration assays; also called hCCR1; CHO-S-hCCR1 (expressing cells)
# T1 sequence: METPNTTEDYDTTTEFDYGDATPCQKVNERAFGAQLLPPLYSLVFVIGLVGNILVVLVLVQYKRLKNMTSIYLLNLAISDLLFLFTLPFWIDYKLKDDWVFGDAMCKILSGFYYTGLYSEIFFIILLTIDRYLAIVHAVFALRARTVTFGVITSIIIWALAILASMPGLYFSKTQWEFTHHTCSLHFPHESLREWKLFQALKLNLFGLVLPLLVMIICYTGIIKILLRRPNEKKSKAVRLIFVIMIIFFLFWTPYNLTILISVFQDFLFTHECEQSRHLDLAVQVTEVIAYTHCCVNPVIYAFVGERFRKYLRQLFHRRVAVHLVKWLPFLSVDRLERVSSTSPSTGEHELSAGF
# assay notes: flow cytometry on CHO-S-hCCR1 cells; bound = fluorescence 10 times or more that of isotype control hzDNP1
# Description: The antigen affinity of the chKM5908′ antibody, which is a VL-substituted chimeric antibody, was measured by flow cytometry using the CHO-S-hCCR1 cells produced in Example 2. […] After washing the cells with SM, the cells were resuspended in 50 μL of SM, and the fluorescence intensity was measured by the flow cytometry (FACS Canto II, BD Biosciences). […]

binder: hzmAb5-06 LV2aHV17 antibody (antibody, V domains shown, humanized) VH: QVQLQQSGPGLVKPSQTLSITCTVSGFSLNNYGVHWVRQPPGKGLEWLGVIWSAGTTVYNAAAISRLTISKDDSKSQVSFKMSSLTAADTAIYYCAKDGSRYYTAMDYWGQGTLVTVSS VL: DIVMTQSPLSLPVTLGEPASISCRSSQSLVHRNGITFFHWYLQKPGQSPKLLIYKISNRFSGVPDRFSGSGSGTDFTLKISRVEAEDVGVYYCSQGTHVPPTFGQGTKVEIK
binding result: binds
--
binder: hzKM5916 LV0HV3 antibody (antibody, V domains shown, humanized; also called hzmAb5916 LV0HV3) VH: QVQLQESGGGLVKPGGSLKLSCAASGFTFSRNAMSWVRQTPEKRLEWVAYISSGSDYIYYADTVKGRFTISRDNAKNTLYLQMSSLRSEDTAMYYCTRFSYGYGKNAPDYWGQGTMVTVSS VL: DIQMTQSPSSLSASVGDRVTITCKASQDINKYIAWYQQKPGKAPKLLIHYTSSLQPGVPSRFSGSGSGTDFSFTISSLQPEDLATYYCLQYDYTMTFGGGTKVEIK
binding result: binds
--
binder: hzKM5907 LV1cHV0 antibody (antibody, V domains shown, humanized; also called hzmAb5907 LV1cHV0) VH: EVQLLESGGGLVQPGGSLRLSCAASGFTFSRYGMSWVRQAPGKGLEWVSSISATFTYTYYTDNVKGRFTISRDNSKNTLYLQMNSLRAEDTAVYYCAKQDNYAWFDSWGQGTLVTVSS VL: DIVMTQTPLSLPVTSGEPVSISCRSSQSIVHSNGNTFLEWYLQKPGQSPQLLIYKVSSRFSGVPDRFSGSGSGTDFTLKISRVEAEDVGVYYCFQGSHIPWTFGGGTKVEIK
binding result: binds

The measured values listed here are drawn from patent US20240026017A1.
